System: NCI-H23
Assay: NCI tumour cell line growth inhibition, 48 h
Calls of active or inactive are those of the source. Rule as the data show it: active = GI50 up to about 1.1 µM and inactive = higher.
OBSERVATION TYPE: GI50

Notebook entry, NCI-H23 assay: GI50 of `Cc1csc(NNC(=O)Nc2ccccc2)n1` = ?
> 100 µM (inactive)

Look up GI50 with NCI-H23 for this molecule: `COCN1C(=O)[C@@H]2CCCN2C(=O)c2ccc(Cl)cc21`
> 100 µM (inactive)

Under NCI-H23: GI50 value of `O=C1Nc2ccccc2/C1=N/Nc1nc(-c2cccc([N+](=O)[O-])c2)cs1` ?
36.4 µM (inactive)

Record lookup: for NCI-H23, what GI50 belongs to CC1=NC(C)(COC(=O)C2(C)NC(C)(CO)CO2)COC1=O (centres undefined) ?
> 100 µM (inactive)
